Data provenance: paper PMC5540273

test system: STK33; settings: concentration: 1 μM, replicates: in singlicate; n = 1;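 further: KINOMEscan kinase panel screen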
quantityName: %Inh (%)

{"compound": "Cl.c1ccc(-c2ccc3c(Nc4ccc5[nH]ncc5c4)ccnc3c2)nc1", "assayedSystem": "STK33", "reportedMeasurement": 0}
{"compound": "O=C(Nc1cccc(-c2nn3ccccc3c2-c2ccnc(Nc3cccc(F)c3)n2)c1)c1c(F)ccc(F)c1Cl", "assayedSystem": "STK33", "reportedMeasurement": 10}
{"compound": "COc1ccc(Nc2nccc(N3CCC(NC(=O)Nc4cccc(OC)c4)C3)n2)cc1 (stereo not drawn)", "assayedSystem": "STK33", "reportedMeasurement": 0}
{"compound": "CN(C)S(=O)(=O)c1cc(-c2ccc3nccc(-c4cccc(S(N)(=O)=O)c4)c3c2)cnc1N", "assayedSystem": "STK33", "reportedMeasurement": 3}
{"compound": "COC(=O)Nc1nc2cc(Oc3ccc(NC(=O)Nc4cc(C(F)(F)F)ccc4F)cn3)ccc2[nH]1.Cl.Cl", "assayedSystem": "STK33", "reportedMeasurement": 55}
{"compound": "Cc1ccc(C(=O)Nc2ccc(Nc3ccnc4cc(-c5nccs5)ccc34)cc2O)cc1.Cl", "assayedSystem": "STK33", "reportedMeasurement": 9}
{"compound": "Nc1ncc(-c2cccnc2)c2scc(-c3ccc4c(c3)CCN4C(=O)Cc3ccccc3)c12", "assayedSystem": "STK33", "reportedMeasurement": 20}
{"compound": "Cc1ccc(C)c(NC(=O)NC2CCN(c3ccnc(Nc4ccc(F)cc4)n3)C2)c1 (stereo not drawn)", "assayedSystem": "STK33", "reportedMeasurement": 0}
{"compound": "Oc1cc(Nc2ccnc3cc(I)ccc23)ccc1F", "assayedSystem": "STK33", "reportedMeasurement": 0}
{"compound": "Nc1n[nH]c2cnc(-c3ccccc3)cc12", "assayedSystem": "STK33", "reportedMeasurement": 31}
{"compound": "Nc1ncc(-c2ccc3nccc(-c4ccncc4)c3c2)cc1S(=O)(=O)N1CCOCC1", "assayedSystem": "STK33", "reportedMeasurement": 0}
{"compound": "C[C@@H]1CC[C@@H](C(=O)Nc2ccccc2)CN1c1cc(-c2ccc3c(N)n[nH]c3c2)nc(N)n1", "assayedSystem": "STK33", "reportedMeasurement": 0}
{"compound": "Cl.Cl.NCC(C(=O)Nc1cc(Br)c(-c2ccnc3[nH]ccc23)s1)c1ccccc1 (stereo not drawn)", "assayedSystem": "STK33", "reportedMeasurement": 52}
{"compound": "O=C(Nc1cccc(Oc2ccc3nc(NC(=O)C4CC4)cn3n2)c1)c1ccccc1C(F)(F)F", "assayedSystem": "STK33", "reportedMeasurement": 0}
{"compound": "O=c1[nH]cc(-c2ccc(N3CCOCC3)cc2)c2sc(-c3cn[nH]c3)cc12", "assayedSystem": "STK33", "reportedMeasurement": 0}
{"compound": "Cn1cc(-c2[nH]c3cc(NC(=O)[C@H](N)C4CCCCC4)cc4c3c2C=NNC4=O)cn1", "assayedSystem": "STK33", "reportedMeasurement": 37}
{"compound": "CSc1cccc2c(-c3ccncn3)c(-c3ccc(F)cc3)nn12", "assayedSystem": "STK33", "reportedMeasurement": 0}
{"compound": "CN(c1ccc(NC(=O)Nc2cc(C(F)(F)F)ccc2F)cc1)c1ccnc(Nc2ccc(S(N)(=O)=O)cc2)n1", "assayedSystem": "STK33", "reportedMeasurement": 81}
{"compound": "COc1ccc(Nc2nccc(NCCNC(=O)c3cc4ccccc4s3)n2)cc1", "assayedSystem": "STK33", "reportedMeasurement": 0}
{"compound": "O=C(Nc1n[nH]c2cc(-c3ccoc3)ccc12)C1CC1", "assayedSystem": "STK33", "reportedMeasurement": 0}
{"compound": "O=C(Nc1cccc(-c2nn3ccccc3c2-c2ccnc(Nc3cccc(C(F)(F)F)c3)n2)c1)c1c(F)cccc1F", "assayedSystem": "STK33", "reportedMeasurement": 4}
{"compound": "FC(F)(F)c1ccc(/C=C/c2cncnc2Nc2ccc3[nH]c(Cc4ccccc4)nc3c2)cc1", "assayedSystem": "STK33", "reportedMeasurement": 0}
{"compound": "Cn1cc(-c2ccc3c(c2)CCN3C(=O)Cc2cccc(F)c2)c2c(N)ncnc21", "assayedSystem": "STK33", "reportedMeasurement": 0}
{"compound": "Cl.Cl.NCC(NCc1ccc(-c2ccnc3[nH]ccc23)s1)c1ccccc1 (stereo not drawn)", "assayedSystem": "STK33", "reportedMeasurement": 76}
{"compound": "O=C(Nc1ccccc1F)NC1CCN(c2ccnc(Nc3ccc(F)cc3)n2)CC1", "assayedSystem": "STK33", "reportedMeasurement": 0}
{"compound": "CC(C)c1nc(-c2cccc(NS(=O)(=O)c3c(F)cccc3F)c2F)c(-c2ccnc(Nc3ccc(N4CCOCC4)nc3)n2)s1", "assayedSystem": "STK33", "reportedMeasurement": 83}
{"compound": "CCn1c(-c2nonc2N)nc2c(C#CC(C)(C)O)nc(OC[C@H](N)c3ccccc3)cc21", "assayedSystem": "STK33", "reportedMeasurement": 0}
{"compound": "CCn1c(-c2nonc2N)nc2c(C#CC(C)(C)O)ncc(OCCCCN)c21.O=C(O)C(F)(F)F.O=C(O)C(F)(F)F", "assayedSystem": "STK33", "reportedMeasurement": 0}
{"compound": "COc1cccc(-c2ccc3c(NC(=O)C4CC4)n[nH]c3n2)c1", "assayedSystem": "STK33", "reportedMeasurement": 0}
{"compound": "CCc1ccc(-c2ccc3c(c2)-c2c(cnn2C)S(=O)(=O)N3C)cc1", "assayedSystem": "STK33", "reportedMeasurement": 0}
{"compound": "CC(=O)N1CCN(c2ccc(Nc3nccc(-c4sc(C(C)C)nc4-c4cccc(NS(=O)(=O)c5cccc(Cl)c5)c4)n3)cn2)CC1", "assayedSystem": "STK33", "reportedMeasurement": 34}
{"compound": "COc1cccc(C(=O)Nc2cccc(Oc3ccc4nc(NC(=O)C5CC5)cn4n3)c2)c1", "assayedSystem": "STK33", "reportedMeasurement": 10}
{"compound": "COc1ccc(CNC(=O)NC2CCN(c3ccnc(Nc4ccc(F)cc4)n3)CC2)cc1", "assayedSystem": "STK33", "reportedMeasurement": 0}
